Experimental readout: melting point

- Smiles text: "O=C(Cn1cc(CNC(=O)c2cc3ccccc3[nH]2)nn1)Nc1ccc([N+](=O)[O-])cc1"
  Observed measurement: "259 to 261 °C"
- Smiles text: "O=C(Cn1cc(CNC(=O)c2cc3ccccc3[nH]2)nn1)Nc1cccc(Cl)c1"
  Observed measurement: "211 to 213 °C"
- Smiles text: "CCc1ccc(NC(=O)Cn2cc(CNC(=O)c3cc4ccccc4[nH]3)nn2)cc1"
  Observed measurement: "203 to 205 °C"
- Smiles text: "Cc1cccc(NC(=O)Cn2cc(CNC(=O)c3cc4ccccc4[nH]3)nn2)c1"
  Observed measurement: "224 to 226 °C"
- Smiles text: "O=C(Cn1cc(CNC(=O)c2cc3ccccc3[nH]2)nn1)Nc1ccc(Br)cc1"
  Observed measurement: "236 to 238 °C"
- Smiles text: "O=C(Cn1cc(CNC(=O)c2cc3ccccc3[nH]2)nn1)Nc1cccc([N+](=O)[O-])c1"
  Observed measurement: "254 to 256 °C"
- Smiles text: "O=C(Cn1cc(CNC(=O)c2cc3ccccc3[nH]2)nn1)Nc1ccc(Cl)cc1Cl"
  Observed measurement: "233 to 235 °C"
- Smiles text: "COc1ccc(NC(=O)Cn2cc(CNC(=O)c3cc4ccccc4[nH]3)nn2)cc1"
  Observed measurement: "209 to 211 °C"
- Smiles text: "Cc1cc([N+](=O)[O-])ccc1NC(=O)Cn1cc(CNC(=O)c2cc3ccccc3[nH]2)nn1"
  Observed measurement: "229 to 231 °C"
- Smiles text: "Cc1cccc(NC(=O)Cn2cc(CNC(=O)c3cc4ccccc4[nH]3)nn2)c1C"
  Observed measurement: "205 to 207 °C"
- Smiles text: "O=C(Cn1cc(CNC(=O)c2cc3ccccc3[nH]2)nn1)Nc1ccccc1"
  Observed measurement: "216 to 218 °C"
- Smiles text: "Cc1ccc(NC(=O)Cn2cc(CNC(=O)c3cc4ccccc4[nH]3)nn2)cc1"
  Observed measurement: "231 to 233 °C"
- Smiles text: "O=C(Cn1cc(CNC(=O)c2cc3ccccc3[nH]2)nn1)Nc1ccc(Cl)cc1"
  Observed measurement: "225 to 227 °C"
- Smiles text: "Cc1cccc(C)c1NC(=O)Cn1cc(CNC(=O)c2cc3ccccc3[nH]2)nn1"
  Observed measurement: "208 to 210 °C"

----------
biological target: yeast α-glucosidase (Saccharomyces cerevisiae, UniProt P53341); test: biochemical; format: biochemical; details: read-out: IC50 against α-glucosidase
Sequence (P53341 whole entry): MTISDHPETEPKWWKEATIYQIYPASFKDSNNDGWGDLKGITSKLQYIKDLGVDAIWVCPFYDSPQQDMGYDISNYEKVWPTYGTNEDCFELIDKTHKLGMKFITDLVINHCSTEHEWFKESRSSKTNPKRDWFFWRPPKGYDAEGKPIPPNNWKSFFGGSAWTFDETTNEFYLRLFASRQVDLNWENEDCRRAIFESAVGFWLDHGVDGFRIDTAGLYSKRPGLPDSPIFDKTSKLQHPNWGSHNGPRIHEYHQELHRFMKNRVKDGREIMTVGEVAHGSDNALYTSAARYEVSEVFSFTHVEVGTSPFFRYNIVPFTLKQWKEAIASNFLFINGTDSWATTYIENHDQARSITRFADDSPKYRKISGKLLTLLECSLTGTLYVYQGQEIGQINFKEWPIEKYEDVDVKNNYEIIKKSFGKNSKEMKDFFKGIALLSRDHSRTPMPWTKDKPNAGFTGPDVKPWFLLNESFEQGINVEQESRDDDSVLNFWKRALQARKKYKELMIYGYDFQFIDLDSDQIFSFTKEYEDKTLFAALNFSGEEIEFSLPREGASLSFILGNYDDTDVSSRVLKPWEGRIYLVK
IC50 values for the compounds below.

- Smiles text: "O=C(Cn1cc(CNC(=O)c2cc3ccccc3[nH]2)nn1)Nc1ccc([N+](=O)[O-])cc1"
  IC50 [µM]: 78.8
- Smiles text: "Cc1cc([N+](=O)[O-])ccc1NC(=O)Cn1cc(CNC(=O)c2cc3ccccc3[nH]2)nn1"
  IC50 [µM]: 43.5
- Smiles text: "O=C(Cn1cc(CNC(=O)c2cc3ccccc3[nH]2)nn1)Nc1cccc([N+](=O)[O-])c1"
  IC50 [µM]: 110
- Smiles text: "Cc1cccc(C)c1NC(=O)Cn1cc(CNC(=O)c2cc3ccccc3[nH]2)nn1"
  IC50 [µM]: 111
- Smiles text: "CCc1ccc(NC(=O)Cn2cc(CNC(=O)c3cc4ccccc4[nH]3)nn2)cc1"
  IC50 [µM]: 40.2
- Smiles text: "O=C(Cn1cc(CNC(=O)c2cc3ccccc3[nH]2)nn1)Nc1ccc(Cl)cc1Cl"
  IC50 [µM]: 39.6
- Smiles text: "Cc1cccc(NC(=O)Cn2cc(CNC(=O)c3cc4ccccc4[nH]3)nn2)c1C"
  IC50 [µM]: 66

Reference source for all entries: paper PMC11233587
